Test system: Leishmania donovani, Trypanosoma brucei rhodesiense, Trypanosoma cruzi
Assay: Antiprotozoal activity against all the studied protozoa
Format: cell-based
Conditions: read-out: IC50 values against all the studied protozoa
pIC50: −log10 of the molar value.
Recorded Endpoint: pIC50

> print(dat)
              smiles.repr                            assayed.target  recorded.endpoint  reported.value
1  CCCCCCCCCCCCCC#CC(=O)O  Leishmania donovani, Trypanosoma brucei rhodesiense, Trypanosoma cruzi              pIC50    4.08 to 4.75

Data request: Reported pIC50, compound CCCCCCCCCCCC#CC(=O)O : ____
Data returned: 3.59 to 4.61

###

Assay: L6 cell cytotoxicity
Type: cell-based
Conditions: rat, L6 cells (rat skeletal myoblasts)
Recorded Endpoint: IC50 (µM)
Numbers only here, please. The scale is µM.

Data request: Reported IC50, compound CCCCCCCCCCCCCC#CC(=O)O [2-HDA, 2-hexadecynoic acid] : ____
Data returned: 340
